# Test system: P388 leukemia ip, CD2F1 mice, survival T/C
# method_notes: NCI In Vivo Anticancer Drug Screen. Data for tumor model P388 Leukemia (intraperitoneal) in CD2F1 (CDF1) mice
# condition_summary: endpoint: median survival time; dose: 7.5 mg/kg/injection; schedule: Q01DX005 (ip); vehicle: Klucel (hydroxypropylcellulose) (HPC); higher = longer survival
Toxic doses and inconclusive results are not listed.
parameter_measured: T/C

// known answers, use as guide
[[record]]
compound = "CNC(=O)Oc1ccccc1OC(C)C"
measured = "97 % of control"

[[record]]
compound = "CC1(C)C(=O)C2=C(OC3([Se]2)C(=O)C(C)(C)C(=O)C(C)(C)C3=O)C(C)(C)C1=O"
measured = "100 % of control"


Q) Given C=C(C)[C@H]1O[C@H]2CC[C@@]3(C)[C@@](O)(CC[C@H]4[C@@H]5OC(C)(C)[C@H]6C[C@@H]7C(=C)Cc8c(Cl)cc9[nH]c(c5c9c8C76O)[C@@]43C)[C@@]23O[C@H]3[C@H]1O (stereo not given in full) , state its recorded T/C.
A) 115 % of control

Q) Given C=C1C(=O)C23CC[C@H]4C(C)(CCC[C@]4(C)C(=O)O)[C@@H]2CCC1C3 (stereo not given in full) , state its recorded T/C.
A) 91 % of control

Q) Given CC(=O)OC1CC(C(C)C2CC(C)=C(C)C(=O)O2)C2(C)CCC3C(CC4OC45C(O)C=CC(=O)C35C)C12O (stereo not given) , state its recorded T/C.
A) 108 % of control
